Where these numbers come from: the supplement of paper PMC3545927

TESTED_TARGET: furin, P09958;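 also: purified furin at 1:10 enzyme:substrate in 50 mM HEPES pH 7.5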
Sequence (P09958 whole entry): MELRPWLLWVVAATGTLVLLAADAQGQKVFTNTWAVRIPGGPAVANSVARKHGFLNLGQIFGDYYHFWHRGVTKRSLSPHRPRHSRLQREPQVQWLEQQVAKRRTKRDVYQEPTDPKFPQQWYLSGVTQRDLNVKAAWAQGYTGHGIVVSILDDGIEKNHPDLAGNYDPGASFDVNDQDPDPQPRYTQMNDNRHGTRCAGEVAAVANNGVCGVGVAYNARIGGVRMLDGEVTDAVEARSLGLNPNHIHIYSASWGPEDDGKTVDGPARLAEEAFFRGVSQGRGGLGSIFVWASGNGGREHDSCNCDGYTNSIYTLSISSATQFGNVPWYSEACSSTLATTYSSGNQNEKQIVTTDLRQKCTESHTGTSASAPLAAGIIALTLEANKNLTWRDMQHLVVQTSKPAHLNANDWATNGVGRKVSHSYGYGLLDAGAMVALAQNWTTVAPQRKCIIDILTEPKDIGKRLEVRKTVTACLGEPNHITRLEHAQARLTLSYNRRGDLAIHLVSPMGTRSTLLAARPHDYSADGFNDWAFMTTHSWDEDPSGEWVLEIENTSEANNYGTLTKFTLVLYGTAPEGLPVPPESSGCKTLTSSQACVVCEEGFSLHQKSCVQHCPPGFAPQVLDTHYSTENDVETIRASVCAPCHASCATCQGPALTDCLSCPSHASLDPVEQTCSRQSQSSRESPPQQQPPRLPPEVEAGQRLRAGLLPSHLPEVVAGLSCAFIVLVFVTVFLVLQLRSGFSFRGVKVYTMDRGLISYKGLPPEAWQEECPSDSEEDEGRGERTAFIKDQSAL
PROCEDURE_DETAILS: furin cleavage Z-score vs untreated control; higher = more cleavage, active = 3.5 or more, inactive = 1 or less, 8 variable residues between constant flanks
TEST_PARAMETERS: 30 min
Some of the results follow. No count for the full screen is at hand.
We use -0.4 as the dividing line for furin cleavage Z-score: on or above the line is fulfilled, below is not fulfilled.

Solved cases below.
[
  {
    "ORDERED_RESIDUES": "CAETKRSINEAGNASASA [FS-2539]",
    "LABEL_CLASS": "fulfilled"
  },
  {
    "ORDERED_RESIDUES": "CAATPPGSVTAGNASASA [HC835]",
    "LABEL_CLASS": "not fulfilled"
  },
  {
    "ORDERED_RESIDUES": "CAPRARCRRAAGNASASA [FS-138]",
    "LABEL_CLASS": "fulfilled"
  },
  {
    "ORDERED_RESIDUES": "CADVKFPGGGAGNASASA [HC171]",
    "LABEL_CLASS": "not fulfilled"
  },
  {
    "ORDERED_RESIDUES": "CAADVIPVRRAGNASASA [HC729]",
    "LABEL_CLASS": "fulfilled"
  },
  {
    "ORDERED_RESIDUES": "CAKIARPKKRAGNASASA [FS-40]",
    "LABEL_CLASS": "not fulfilled"
  }
]

Task: Tell me whether furin cleavage Z-score is at least -0.4 here: CAKIPRFRRIAGNASASA [FS-449]
Result: fulfilled

Task: Can CAVPRRSKRIAGNASASA [FS-513] be said to have furin cleavage Z-score at or above -0.4?
Result: fulfilled

Task: Does furin cleavage Z-score meet or surpass -0.4 for CATCTTPCSGAGNASASA [HC1958] ?
Result: not fulfilled

Task: State whether the measured furin cleavage Z-score reaches -0.4, counting equality as reaching it, for CAAKSRPVRGAGNASASA [FS-523]
Result: fulfilled

Task: Is reported furin cleavage Z-score greater than or equal to -0.4 here: CAYLLPRRGPAGNASASA [HC178]
Result: fulfilled

Task: Does CAISGIQYLAAGNASASA [HC1045] have a reported furin cleavage Z-score of at least -0.4?
Result: not fulfilled

Task: In plain terms: is recorded furin cleavage Z-score at least -0.4 for CAHPDATYSRAGNASASA [HC455] ?
Result: not fulfilled

Task: Tell me whether furin cleavage Z-score is at least -0.4 here: CAHLSRRRRNAGNASASA [FS-1007]
Result: fulfilled

Task: Could you please find out whether CAYLLRRRRNAGNASASA [FS-1620] has furin cleavage Z-score that meets -0.4 or exceeds it?
Result: fulfilled

Task: Determine whether this sequence has furin cleavage Z-score no lower than -0.4: CARKRRDTGGAGNASASA [FS-2346]
Result: fulfilled

Task: Test whether the sequence CALDQAETAGAGNASASA [HC827] records furin cleavage Z-score of -0.4 or higher.
Result: fulfilled

Task: Is furin cleavage Z-score for CAAKSKFGYGAGNASASA [HC1419] at or above -0.4?
Result: fulfilled

Task: Hi team, for CARRKRRAPLAGNASASA [FS-2594] , is the recorded furin cleavage Z-score at or above -0.4?
Result: fulfilled
